Entries annotated with measured inhibition
- measurement.target: Rhodesain (Trypanosoma brucei rhodesiense) (UniProt Q95PM0)
- Sequence (Q95PM0 1-450): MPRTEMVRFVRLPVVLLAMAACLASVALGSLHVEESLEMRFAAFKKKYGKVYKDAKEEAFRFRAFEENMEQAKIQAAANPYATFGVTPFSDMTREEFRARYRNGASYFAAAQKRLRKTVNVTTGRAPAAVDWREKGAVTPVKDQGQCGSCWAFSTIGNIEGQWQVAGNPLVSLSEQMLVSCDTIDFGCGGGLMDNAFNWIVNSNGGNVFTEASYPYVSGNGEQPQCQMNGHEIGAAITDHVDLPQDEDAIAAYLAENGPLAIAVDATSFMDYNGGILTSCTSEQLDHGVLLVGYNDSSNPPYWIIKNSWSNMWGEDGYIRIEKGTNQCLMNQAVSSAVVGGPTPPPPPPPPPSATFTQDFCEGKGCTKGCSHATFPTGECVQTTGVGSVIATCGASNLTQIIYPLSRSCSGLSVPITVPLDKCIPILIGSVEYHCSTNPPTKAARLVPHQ
- test.protocol: Inhibition of Trypanosoma brucei rhodesiense rhodesain after 12 hrs by fluorescence spectroscopy-based on-bead assay
- Design: concentration or dose not given beside the values
- condition.info: concentration not given here
Peptide text beside a SMILES is read from it.
Quick reminder: number only, in %, skip the unit.

Some compounds with recorded inhibition:
[
  {
    "compound": "CC(C)C[C@H](NC(=O)[C@H](CCC(N)=O)NC(=O)/C=C/C(=O)NCC(=O)NCC(=O)N[C@@H](Cc1ccccc1)C(=O)O)C(=O)N[C@@H](CC(C)C)C(=O)N[C@H](C(N)=O)C(C)C (HELM PEPTIDE1{[O=C(/C=C/C(=O)[*:2])NCC(=O)NCC(=O)N[C@@H](Cc1ccccc1)C(=O)O].Q.L.L.V.[am]}$$$$V2.0)",
    "inhibition (%)": 69
  },
  {
    "compound": "CC(C)[C@H](NC(=O)[C@@H](NC(=O)[C@@H](NC(=O)[C@H](C)NC(=O)/C=C/C(=O)NCC(=O)NCC(=O)N[C@@H](Cc1ccccc1)C(=O)O)C1CCCCC1)C(C)C)C(N)=O (HELM PEPTIDE1{[O=C(/C=C/C(=O)[*:2])NCC(=O)NCC(=O)N[C@@H](Cc1ccccc1)C(=O)O].A.[O=C([C@@H](N[*:1])C1CCCCC1)[*:2]].V.V.[am]}$$$$V2.0)",
    "inhibition (%)": 40
  },
  {
    "compound": "CC[C@H](C)[C@H](NC(=O)[C@H](Cc1ccccc1)NC(=O)/C=C/C(=O)N[C@@H](C)C(=O)NCC(=O)N[C@@H](Cc1ccccc1)C(=O)O)C(=O)N[C@@H](C)C(=O)N[C@H](C(N)=O)C(C)C (HELM PEPTIDE1{[C[C@H](NC(=O)/C=C/C(=O)[*:2])C(=O)NCC(=O)N[C@@H](Cc1ccccc1)C(=O)O].F.I.A.V.[am]}$$$$V2.0)",
    "inhibition (%)": 40
  },
  {
    "compound": "CC(C)C[C@H](NC(=O)[C@@H](NC(=O)[C@H](CCC(N)=O)NC(=O)/C=C/C(=O)NCC(=O)NCC(=O)N[C@@H](Cc1ccccc1)C(=O)O)c1ccccc1)C(=O)N[C@H](C(N)=O)C(C)C (HELM PEPTIDE1{[O=C(/C=C/C(=O)[*:2])NCC(=O)NCC(=O)N[C@@H](Cc1ccccc1)C(=O)O].Q.[Phg].L.V.[am]}$$$$V2.0)",
    "inhibition (%)": 62
  }
]

[in] Record request: inhibition value, item CC(C)C[C@H](NC(=O)[C@H](C)NC(=O)/C=C/C(=O)N[C@@H](C)C(=O)NCC(=O)N[C@@H](Cc1ccccc1)C(=O)O)C(=O)N[C@H](C(=O)N[C@H](C(N)=O)C(C)C)C(C)C (HELM PEPTIDE1{[C[C@H](NC(=O)/C=C/C(=O)[*:2])C(=O)NCC(=O)N[C@@H](Cc1ccccc1)C(=O)O].A.L.V.V.[am]}$$$$V2.0)
[out] 59

[in] Field request: inhibition | item: CC(=O)NC[C@H](NC(=O)/C=C/C(=O)NCC(=O)NCC(=O)N[C@@H](Cc1ccccc1)C(=O)O)C(=O)N[C@H](C(=O)N[C@H](C(=O)N[C@H](C(N)=O)C(C)C)C(C)C)c1ccccc1 (HELM PEPTIDE1{[O=C(/C=C/C(=O)[*:2])NCC(=O)NCC(=O)N[C@@H](Cc1ccccc1)C(=O)O].[O=C([C@H](CN[*:3])N[*:1])[*:2]].[Phg].V.V.[am]}|PEPTIDE2{[ac]}$PEPTIDE1,PEPTIDE2,2:R3-1:R2$$$V2.0)
[out] 40
